B1: PLAGL1 (parent)
chain: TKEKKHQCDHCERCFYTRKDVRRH

# Variants of: B1
# Assay Method Text: protein stability index of a GFP-peptide fusion (GPS, HEK-293T) (PSI 1-6); higher = more stable;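 also: lentivirally expressed fusions sorted by FACS into six bins by GFP to DsRed ratio, PSI derived from sequencing read proportions per bin multiplied by bin number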
# Particulars: c terminus: a fixed tail appended
Measured Property: protein stability index

> print(dat)
    mutant.label  observed
 1          C11R      4.11
 2          V21H       3.7
 3          T17Y      3.09
 4          K19E      4.03
 5           K5S      3.46
 6          R22E      4.73
 7          R13L      3.27
 8          F15N      3.48
 9          C14D      3.54
10          R18W      3.27
11          R13Y      2.63
12           C8H      3.25
